System: L1210 leukemia ip in BDF1 mice, survival T/C
Assay: NCI In Vivo Anticancer Drug Screen. Data for tumor model L1210 Leukemia (intraperitoneal) in B6D2F1 (BDF1) mice
Settings: endpoint: mean survival time; dose: 400.0 mg/kg/injection; schedule: Q01DX001 (ip); vehicle: saline; higher = longer survival
Inconclusive results and toxic doses are left out.
Property name: T/C

CCN(CC)c1cc(C)c2cc(Cc3ccc4nc(N(CC)CC)cc(C)c4c3)ccc2n1 : 90 % of control
Nc1nc2ncnc(N)c2nc1-c1ccc(N(CCCl)CCCl)cc1 : 102 % of control
CCCCOC(=O)CC(C(=O)OCCCC)S(=O)(=O)O (stereo not given) : 101 % of control
COc1cccc(N=Nc2c(N)nc(N)[nH]c2=O)c1 : 104 % of control
CCSC(=O)OCn1ncc2cc([N+](=O)[O-])ccc21 : 103 % of control
CC(=O)OCCC/C(=C/c1ccc2c(c1)OCO2)[N+](=O)[O-] : 98 % of control

Give one value of T/C per listed compound.
1. NC(=O)c1ncn(C2CC(CO)C(O)C2O)c1N (stereo not given)
2. O=C(CN1C(=O)c2ccccc2C1=O)NCC(=O)Nc1ccccc1
3. CC(O)C(=O)COP(=O)(O)O (stereo not given)

-- reply
1: 104 % of control; 2: 93 % of control; 3: 96 % of control

-- ask Query (compound): `O=C(N=P(c1ccccc1)(c1ccccc1)c1ccccc1)c1ccccc1` ; field requested: T/C
-- reply 96 % of control

----------
Tested on: L1210 leukemia ip in BDF1 mice, survival T/C
Experiment: NCI In Vivo Anticancer Drug Screen. Data for tumor model L1210 Leukemia (intraperitoneal) in B6D2F1 (BDF1) mice
Conditions: endpoint: mean survival time; dose: 100.0 mg/kg/injection; schedule: Q04DX003 (ip); vehicle: Klucel (hydroxypropylcellulose) (HPC); higher = longer survival
Toxic doses and inconclusive results are not listed.
Property name: T/C

Please review the entries below; each comes with its answer.
Nc1ccc(F)cc1[N+](=O)[O-] : 105 % of control
CC(=O)Nc1ccc(C=NCCN=Cc2ccc(NC(C)=O)cc2)cc1 : 97 % of control
ClCc1c(Cl)c(Cl)c(Cl)c(CCl)c1Cl : 96 % of control
CC(=O)c1ccc(F)cc1 : 86 % of control

-- ask Returns the measured T/C for the input molecule. Input: CNCc1ccccc1C(O)c1ccc(Cl)cc1 (stereo not given)
-- reply 104 % of control

----------
Give measured T/C for each item. Keep answers brief.
System: L1210 leukemia ip in BDF1 mice, survival T/C
Assay: NCI In Vivo Anticancer Drug Screen. Data for tumor model L1210 Leukemia (intraperitoneal) in B6D2F1 (BDF1) mice
Conditions: endpoint: mean survival time; dose: 400.0 mg/kg/injection; schedule: Q04DX003 (ip); vehicle: saline; higher = longer survival
Inconclusive results and toxic doses are left out.

Here are 2 molecules together with their reported answers.
COC(=O)C1(Br)CCC1(Br)C(=O)OC (centres undefined) : 102 % of control
COc1ccccc1C(C#N)N1CCCN(C(C#N)c2ccccc2OC)C1c1cc(Cl)cc(Cl)c1O (centres undefined) : 97 % of control

Please state, for each entry, its recorded T/C.
1. O=C1OC(=O)C2C1C1C3C=CC3C1C21C=C1 (centres undefined)
2. C=CCNC(=S)C(C(=O)OC)C(=O)OC

-- reply
1: 100 % of control; 2: 100 % of control

----------
System: L1210 leukemia ip in BDF1 mice, survival T/C
Assay: NCI In Vivo Anticancer Drug Screen. Data for tumor model L1210 Leukemia (intraperitoneal) in B6D2F1 (BDF1) mice
Conditions: endpoint: mean survival time; dose: 200.0 mg/kg/injection; schedule: Q01DX001 (ip); vehicle: saline; higher = longer survival
Toxic doses and inconclusive results are not listed.
Property name: T/C

NC(=S)N/N=C\c1ccc(/C=N/NC(N)=S)cc1 : 90 % of control
CCN(CC)c1cc(C)c2cc(Cc3ccc4nc(N(CC)CC)cc(C)c4c3)ccc2n1 : 96 % of control
CN(C)CCNC(=O)CN : 107 % of control

-- ask Entry under review: `CCCCNS(=O)(=O)c1ccc(OC)c(NC(=O)c2ccc(C(=O)Nc3cc(S(=O)(=O)NCCCC)ccc3OC)cc2)c1` . Reported T/C?
-- reply 94 % of control

----------
Tested on: L1210 leukemia ip in BDF1 mice, survival T/C
Experiment: NCI In Vivo Anticancer Drug Screen. Data for tumor model L1210 Leukemia (intraperitoneal) in B6D2F1 (BDF1) mice
Conditions: endpoint: mean survival time; dose: 200.0 mg/kg/injection; schedule: Q01DX009 (ip); vehicle: saline with Tween-80; higher = longer survival
Toxic doses and inconclusive results are not listed.
I'd appreciate it if you could supply T/C values for the items below.

Guide cases for T/C, answers given:
OC(Cc1ccccc1)c1ccccc1 (centres undefined) : 98 % of control
O=C(OC1CCCC1c1ccccc1)c1cccc([N+](=O)[O-])c1 (centres undefined) : 87 % of control
CCCC1(C)NC(=O)NC1=O (centres undefined) : 98 % of control

Let us move to another entry and its T/C.
-- ask Which measured T/C value corresponds to `COc1ccc(C(=O)CCC(=O)O)cc1` ?
-- reply 93 % of control

----------
Tested on: L1210 leukemia ip in BDF1 mice, survival T/C
Assay: NCI In Vivo Anticancer Drug Screen. Data for tumor model L1210 Leukemia (intraperitoneal) in B6D2F1 (BDF1) mice
Conditions: endpoint: mean survival time; dose: 100.0 mg/kg/injection; schedule: Q01DX001 (ip); vehicle: carboxymethylcellulose (CMC); higher = longer survival
Toxic doses and inconclusive results are not listed.
Property name: T/C

In the examples that follow, each entry is paired with its recorded T/C.
CC(=O)OC(c1ccnc2ccccc12)C1CC2CCN1CC2 (stereo not drawn) : 97 % of control
c1cc2c(c3c1CCCC3)CCC1CCCCC21 (stereo not drawn) : 103 % of control

Batch of 7 molecules: report T/C for each.
1. OC(c1cc(-c2cccc(Cl)c2)nc2ccccc12)C1CCCCN1 (stereo not drawn)
2. CC1(c2cccs2)NC(=O)NC1=O (stereo not drawn)
3. COc1cc(C2c3c(cc(OC)c(O)c3OC)C=C(C(=O)O)C2CO)cc(OC)c1O (stereo not drawn)
4. Nn1cnnc1N/N=C/c1ccccc1Cl
5. COC(=O)C(Cc1c[nH]c2ccccc12)NC(=O)C(NC(=O)OC(C)(C)C)C(C)C (stereo not drawn)
6. CCC(C)(C)c1cccc(C(=O)O)c1O
7. ICC1CCC(CI)CC1 (stereo not drawn)

-- reply
1: 90 % of control; 2: 95 % of control; 3: 102 % of control; 4: 96 % of control; 5: 100 % of control; 6: 104 % of control; 7: 102 % of control

# map each molecule to its T/C
1. Clc1ccc(Sc2ccc(Br)cc2)cc1
2. COCC(=O)Nc1ccc(Cl)c(Cl)c1
3. COC(=O)C1OC(n2cnc3c(N)ncnc32)C(OC(C)=O)C(OC(C)=O)C1OC(C)=O (stereo not drawn)
4. CN(C)CCC(O)(c1ccccc1)c1ccccc1Cl (stereo not drawn)
5. CN(C)S(=O)(=O)c1ccccc1C(O)(c1ccccc1)c1ccccc1
6. NNc1ncnc(SCc2ccccc2)c1N
7. CN(C)c1ccc(/C=N\NC(=S)Nc2ccc3cn[nH]c3c2)cc1
8. COc1ccccc1NC(=O)N(CCCl)N=O

-- reply
101 % of control
100 % of control
92 % of control
90 % of control
95 % of control
98 % of control
102 % of control
100 % of control

-- ask Consider the molecule shown here: `CN(C)Cc1c(C(O)(c2ccccc2)c2ccccc2)cc2ccccc2c1Cl` What is its recorded T/C?
-- reply 94 % of control

----------
System: L1210 leukemia ip in BDF1 mice, survival T/C
Test: NCI In Vivo Anticancer Drug Screen. Data for tumor model L1210 Leukemia (intraperitoneal) in B6D2F1 (BDF1) mice
Details: endpoint: mean survival time; dose: 400.0 mg/kg/injection; schedule: Q04DX003 (ip); vehicle: saline; higher = longer survival
Inconclusive results and toxic doses are left out.
Please respond with reported T/C for every item in the list.

CC(=O)C(N)CCC(=O)O (stereo not given) : 94 % of control

List T/C for every entry below, keeping the order given.
1. CC(=NCc1ccccc1)C(C)(O)c1ccccc1 (stereo not given)
2. COC(=O)C[N+]12CN3CN(CN(C3)C1)C2
3. CCSCCO
4. CCCCCCCCCCCCOCCOCCOCC(N)=O
5. CC(N)Cc1ccc(O)cc1 (stereo not given)
6. [CH3][Sb]1([CH3])([I])[CH2]CC[CH2]1
7. CC1([N+](=O)[O-])COCOC1
8. O=C(c1ccccc1)C(Cl)Cl

-- reply
["95 % of control", "108 % of control", "100 % of control", "97 % of control", "94 % of control", "101 % of control", "94 % of control", "98 % of control"]

-- ask What value of measured T/C is listed for COC1CC2c3ccccc3C1C(C)=[N+]2C (stereo not given) ?
-- reply 102 % of control
